# SUBJECT_OF_TEST: Type-1 angiotensin II receptor (Homo sapiens)
# Sequence (P30556 whole entry): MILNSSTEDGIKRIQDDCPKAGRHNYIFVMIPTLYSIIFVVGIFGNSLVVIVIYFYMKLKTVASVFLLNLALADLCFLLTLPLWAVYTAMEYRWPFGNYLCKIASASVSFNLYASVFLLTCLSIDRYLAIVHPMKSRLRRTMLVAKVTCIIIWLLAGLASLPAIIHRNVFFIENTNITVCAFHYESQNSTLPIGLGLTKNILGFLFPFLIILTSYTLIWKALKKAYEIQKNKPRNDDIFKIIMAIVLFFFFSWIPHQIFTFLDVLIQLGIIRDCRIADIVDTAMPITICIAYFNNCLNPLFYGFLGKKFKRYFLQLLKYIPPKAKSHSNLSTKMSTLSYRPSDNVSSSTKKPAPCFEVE
# ASSAY_PROTOCOL: Displacement of [125I]-[Sar1,Leu8]angiotensin II from human AT1 receptor expressed in african green monkey COS7 cells
READOUT: IC50 (nM)
Quick note: give the figure in nM, leave out the unit.

Challenge: Give the measured IC50 of CCCCOC(=O)NS(=O)(=O)c1ccc(CC(C)C)cc1-c1ccc(Cn2c(CC)nc3c(C)cc(C)nc32)cc1 .
Response given: 2.1

====

# ASSAY_PROTOCOL: Binding affinity to AT2 receptor (unknown origin)
Listed molecules paired with reported IC50

* CCCCOC(=O)NS(=O)(=O)c1ccc(CC(C)C)cc1-c1ccc(Cn2c(CC)nc3c(C)cc(C)nc32)cc1 | 0.7 nM

In the following, a different molecule is considered.
Challenge: Give the measured IC50 of CCCCOC(=O)NS(=O)(=O)c1ccc(CCC)cc1-c1ccc(Cn2c(CC)nc3c(C)cc(C)nc32)cc1 .
Response given: 4.2 nM

Origin of values: ChEMBL document CHEMBL3392997
